Could you please report measured Crabgrass, Large plant response rating for the items listed next?
# Tested on: large (Lg) crabgrass
# Assay Name: Test C preemergence
# Format: in vivo, Digitaria sanguinalis
# Experimental Parameters: 16 g ai/ha, preemergence; scale 0 to 100 (0 no effect, 100 complete control)
Give the value as a plain number.

Supply Crabgrass, Large plant response rating value. Item: CCOc1cnn(-c2ccccc2Oc2ncc(Cl)cn2)c1 [Compound 187]
5

Supply Crabgrass, Large plant response rating value. Item: N#Cc1cn(-c2c(Br)cccc2Oc2ncc(Cl)cn2)nn1 [Compound 116]
5

Supply Crabgrass, Large plant response rating value. Item: Fc1cccc(Oc2ncc(Cl)cn2)c1-n1cc(I)cn1 [Compound 179]
55

Supply Crabgrass, Large plant response rating value. Item: N#Cc1cnn(-c2c(C#N)cccc2Oc2ncc(F)cn2)c1 [Compound 111]
98

Supply Crabgrass, Large plant response rating value. Item: N#Cc1cnn(-c2c(Oc3ncc(Cl)cn3)cccc2C(F)F)c1 [Compound 236]
90

Supply Crabgrass, Large plant response rating value. Item: CCOc1cnn(-c2c(C#N)cccc2Oc2ncc(F)cn2)c1 [Compound 89]
80

----------
# Test system: giant foxtail
# Assay Name: Test A postemergence
# Type: in vivo, Setaria faberii
# Experimental Parameters: 500 g ai/ha, 0 to 100 scale where 0 is no effect and 100 is complete control
Could you please report measured Plant response rating, Foxtail, Giant for the items listed next?
Give the value as a plain number.

Specify Plant response rating, Foxtail, Giant for N#Cc1cccc(Oc2ncc(Cl)cn2)c1-n1cc(Br)cn1 [Compound 235] , system giant foxtail.
30

Specify Plant response rating, Foxtail, Giant for FCc1cccc(Oc2ncc(Cl)cn2)c1-n1cc(Br)cn1 [Compound 83] , system giant foxtail.
100

Specify Plant response rating, Foxtail, Giant for CC(C)(C)c1cnn(-c2c(C#N)cccc2Oc2ncc(Cl)cn2)c1 [Compound 82] , system giant foxtail.
20

Specify Plant response rating, Foxtail, Giant for N#Cc1cccc(Oc2ncc(I)cn2)c1-n1cc(Cl)cn1 [Compound 75] , system giant foxtail.
80

Specify Plant response rating, Foxtail, Giant for COc1ccc(Br)c(-n2cc(Br)cn2)c1Oc1ncc(Cl)cn1 [Compound 201] , system giant foxtail.
40

Specify Plant response rating, Foxtail, Giant for Oc1cccc(Oc2ncc(Cl)cn2)c1-n1cc(Br)cn1 [Compound 68] , system giant foxtail.
0

Specify Plant response rating, Foxtail, Giant for N#Cc1cccc(Oc2ncc(Cl)cn2)c1-n1cc(I)cn1 [Compound 204] , system giant foxtail.
100

Specify Plant response rating, Foxtail, Giant for O=Cc1cccc(Oc2ncc(F)cn2)c1-n1cc(C(F)(F)F)cn1 [Compound 162] , system giant foxtail.
0

Specify Plant response rating, Foxtail, Giant for C#Cc1cnn(-c2ccccc2Oc2ncc(Cl)cn2)c1 [Compound 188] , system giant foxtail.
90

----------
Could you please report measured Corn plant response rating for the items listed next?
# Tested on: corn
# Assay Name: Test A preemergence
# Type: in vivo, Zea mays
# Experimental Parameters: 500 g ai/ha, 0 to 100 scale where 0 is no effect and 100 is complete control
Give the value as a plain number.

Supply Corn plant response rating value. Item: CON=Cc1cccc(Oc2ncc(Cl)cn2)c1-n1cc(Br)cn1
0

Supply Corn plant response rating value. Item: N#Cc1cccc(Oc2ncc(Br)cn2)c1-n1cccn1
0

Supply Corn plant response rating value. Item: C#Cc1cnn(-c2ccccc2Oc2ncc(Cl)cn2)c1
20

Supply Corn plant response rating value. Item: Clc1cnc(Oc2cccc(-c3cccnc3)c2-n2cc(Br)cn2)nc1
0

Supply Corn plant response rating value. Item: Cc1ccc(Oc2ncc(Cl)cn2)c(-n2cc(Br)cn2)c1Br
0

Supply Corn plant response rating value. Item: CCOc1cnn(-c2ccccc2Oc2ncc(Cl)cn2)c1
40

Supply Corn plant response rating value. Item: O=Cc1cccc(Oc2ncc(Br)cn2)c1-n1cc(C(F)(F)F)cn1
0

Supply Corn plant response rating value. Item: Fc1cccc(Oc2ncc(Cl)cn2)c1-n1cc(I)cn1
10

Supply Corn plant response rating value. Item: Brc1cnn(-c2ccccc2Oc2ncccn2)c1
0

Supply Corn plant response rating value. Item: N#Cc1ccc(Oc2ncc(Cl)cn2)c(-n2cc(Br)cn2)c1
0

----------
# Tested on: yellow nutsedge
# Assay Name: Test C preemergence
# Format: in vivo, Cyperus esculentus
# Experimental Parameters: 62 g ai/ha, preemergence; scale 0 (no effect) to 100 (complete control)
Measurement Type: Nutsedge, Yellow plant response rating
Give the value as a plain number.

Supply Nutsedge, Yellow plant response rating value. Item: FCc1cccc(Oc2ncc(F)cn2)c1-n1cc(C(F)(F)F)cn1 [Compound 118]
25

Supply Nutsedge, Yellow plant response rating value. Item: Cc1cnc(Oc2cccc(C#N)c2-n2cc(I)cn2)nc1 [Compound 136]
10

Supply Nutsedge, Yellow plant response rating value. Item: N#Cc1cn(-c2c(Br)cccc2Oc2ncc(Cl)cn2)nn1 [Compound 116]
10

Supply Nutsedge, Yellow plant response rating value. Item: FC(F)(F)c1cnn(-c2c(Cl)cccc2Oc2ncc(Cl)cn2)c1 [Compound 167]
10

Supply Nutsedge, Yellow plant response rating value. Item: CCOc1cnn(-c2c(C#N)cccc2Oc2ncc(F)cn2)c1 [Compound 89]
10

----------
# Tested on: kochia
# Assay Name: Test A postemergence
# Format: in vivo, Kochia scoparia
# Experimental Parameters: 1000 g ai/ha, 0 to 100 scale, 0 no effect, 100 complete control
# Text: […]
Measurement Type: Plant response rating, Kochia

Supply Plant response rating, Kochia value. Item: FCc1cn(-c2c(F)cccc2Oc2ncc(Cl)cn2)nn1
100

Supply Plant response rating, Kochia value. Item: CN(C)C(=O)c1cccc(Oc2ncc(Cl)cn2)c1-n1cc(C(F)(F)F)cn1
50

Supply Plant response rating, Kochia value. Item: CCN(C)C(=O)c1cccc(Oc2ncc(Cl)cn2)c1-n1cc(C(F)(F)F)cn1
30

Supply Plant response rating, Kochia value. Item: Fc1cccc(Oc2ncc(Cl)cn2)c1-n1ccnn1
100

Supply Plant response rating, Kochia value. Item: C[Si](C)(C)c1cn(-c2c(Br)cccc2Oc2ncc(Cl)cn2)nn1
20

Supply Plant response rating, Kochia value. Item: Fc1cccc(Oc2ncc(Cl)cn2)c1-n1cc(C2CC2)nn1
100

----------
# System: chickweed
# Assay Name: Test C postemergence
# Format: in vivo, Stellaria media
# Experimental Parameters: Postemergence, 62 g ai/ha; scale 0 to 100 (0 no effect, 100 complete control)
# From the text: […]
Could you please report measured Plant response rating, Chickweed for the items listed next?
Give the value as a plain number.

Supply Plant response rating, Chickweed value. Item: N#Cc1cccc(Oc2ncc(Br)cn2)c1-n1cc(I)cn1
20

Supply Plant response rating, Chickweed value. Item: N#Cc1cn(-c2c(Br)cccc2Oc2ncc(Cl)cn2)nn1
55

Supply Plant response rating, Chickweed value. Item: CCOc1cnn(-c2c(C#N)cccc2Oc2ncc(F)cn2)c1
50

Supply Plant response rating, Chickweed value. Item: FCc1cccc(Oc2ncc(Cl)cn2)c1-n1cc(Br)cn1
60

Supply Plant response rating, Chickweed value. Item: FCc1cccc(Oc2ncc(Br)cn2)c1-n1cc(C(F)(F)F)cn1
70

----------
# Tested on: giant foxtail
# Assay Name: Test A postemergence
# Type: in vivo, Setaria faberii
# Experimental Parameters: 500 g ai/ha, 0 to 100 scale where 0 is no effect and 100 is complete control
Measurement Type: Plant response rating, Foxtail, Giant
Give the value as a plain number.

Supply Plant response rating, Foxtail, Giant value. Item: Clc1cnc(Oc2cccc(-c3cccnc3)c2-n2cc(Br)cn2)nc1
10

Supply Plant response rating, Foxtail, Giant value. Item: CCOC(=O)c1cnn(-c2c(C#N)cccc2Oc2ncc(Cl)cn2)c1
0

Supply Plant response rating, Foxtail, Giant value. Item: O=Cc1cccc(Oc2ncc(Cl)cn2)c1-n1cc(C(F)(F)F)cn1
0

Supply Plant response rating, Foxtail, Giant value. Item: Brc1cnn(-c2ccccc2Oc2ncccn2)c1
30

Supply Plant response rating, Foxtail, Giant value. Item: Fc1cccc(Oc2ncc(Cl)cn2)c1-n1cc(I)cn1
90

----------
# System: winter barley
# Assay Name: Test D postemergence
# Type: in vivo, Hordeum vulgare
# Experimental Parameters: Hordeum vulgare, post-emergence; Postemergence; 31 g ai/ha; scale 0 to 100 (0 no effect, 100 complete control); read-out: Plant response rating, Barley, Winter
Could you please report measured plant injury at 31 g/ha for the items listed next?
Express the result in % but write the number alone.

Specify plant injury at 31 g/ha for N#Cc1cccc(Oc2ncc(Cl)cn2)c1-n1cc(C(F)(F)F)cn1 , system winter barley.
10

Specify plant injury at 31 g/ha for FC(F)(F)c1cnn(-c2ccccc2Oc2ncc(Br)cn2)c1 , system winter barley.
10

Specify plant injury at 31 g/ha for FC(F)(F)c1cn(-c2ccccc2Oc2ncc(Cl)cn2)nn1 , system winter barley.
15

Specify plant injury at 31 g/ha for Fc1cccc(Oc2ncc(Cl)cn2)c1-n1cc(Br)cn1 , system winter barley.
0
